# SYSTEM_UNDER_TEST: T1, Anti-CD28 Fab (SEQ ID NOs: 696, 697)
# T1 construct: In the phage ELISA the Fab was biotinylated and captured on neutravidin coated plates
# TEST_SUMMARY: phage ELISA; biotinylated anti-CD28 Fab on neutravidin plate, clonal phage supernatant, anti-M13 HRP detection;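 further: crude supernatants of single phage clones picked after panning were screened for binding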
Reported Anti-CD28 Fab signal (phage binding ELISA) is given for each of the following binders.
Answer with a bare number; do not write a unit.

For the binder YCDGHLAIYMWKCL (Tested as clonal phage supernatant) [Phage-1037] , give its reported Anti-CD28 Fab signal (phage binding ELISA). 1.45

For the binder YCQGHIEPYLAKCL (Tested as clonal phage supernatant) [Phage-1036] , give its reported Anti-CD28 Fab signal (phage binding ELISA). 1.46

For the binder YCEGHSQEYMAKCL (Tested as clonal phage supernatant) [Phage-1046] , give its reported Anti-CD28 Fab signal (phage binding ELISA). 1.44

For the binder YCEGHAVEYMAKCL (Tested as clonal phage supernatant) [Phage-1043] , give its reported Anti-CD28 Fab signal (phage binding ELISA). 1.44

For the binder YCEGHLPIYMEKCL (Tested as clonal phage supernatant) [Phage-1044] , give its reported Anti-CD28 Fab signal (phage binding ELISA). 1.44

For the binder YCEGHSMEYIQKCL (Tested as clonal phage supernatant) [Phage-1045] , give its reported Anti-CD28 Fab signal (phage binding ELISA). 1.44
